Origin of values: patent US10774071B2

# Experimental system: PD-1/PD-L1 (Homo sapiens (Human))
# Sequence (Q9NZQ7 19-238): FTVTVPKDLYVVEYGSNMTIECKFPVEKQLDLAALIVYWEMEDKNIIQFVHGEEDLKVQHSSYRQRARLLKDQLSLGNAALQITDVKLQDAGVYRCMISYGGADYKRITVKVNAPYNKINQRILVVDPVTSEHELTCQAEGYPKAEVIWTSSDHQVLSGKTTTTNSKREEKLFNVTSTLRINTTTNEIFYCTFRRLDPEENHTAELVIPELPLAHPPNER
# Experimental protocol: PD-1/PD-L1 biochemical protein-protein interaction assay (ALPHA)
# Assay type: binding
# Experimental context: 0.3 nM His tagged PD-L1, 2.5 nM biotinylated Fc-PD-1, readings of 0.064 nM are equal to or less than 0.064 nM, read-out: IC50 PD-L1-PD1
pIC50: −log10 of the molar value.
Recorded endpoint: pIC50

Please review the following examples before continuing.
>  <Chem smiles>
COc1nc(-c2cccc(-c3cccc4c3CC[C@@H]4Nc3nc(OC)c(CNCC(=O)O)nc3C(F)(F)F)c2Cl)ccc1CNC[C@H]1C[C@](C)(O)C1

>  <pIC50>
≥ 10.19

$$$$
>  <Chem smiles>
COc1nc(-c2cccc(-c3cccc4c3CC[C@@H]4Nc3nc(OC)c(CN4CC[C@@](C)(C(=O)O)C4)nc3C(F)(F)F)c2Cl)ccc1CNC[C@@H]1CCC(=O)N1

>  <pIC50>
≥ 10.19

$$$$

Kindly review the next compound as well.
Tell us which pIC50 value is on record for `COc1nc(-c2cccc(-c3cccc4c3CC[C@@H]4Nc3nc(OC)c(CNCC(=O)O)nc3C(F)(F)F)c2Cl)ccc1CN1CC(O)C1` ≥ 10.19
